Every entry's value here was drawn from PubChem BioAssay AID1018.

target: E3 ubiquitin-protein ligase XIAP (Homo sapiens) (UniProt P98170); assay: small molecules displacing peptide from XIAP – biochemical, IAP family, fluorescence polarization (AID 1018); conditions: XIAP BIR domain, at 20 µM, stronger effect = higher value
Sequence (P98170 whole entry, looked up, the tested form may be a part): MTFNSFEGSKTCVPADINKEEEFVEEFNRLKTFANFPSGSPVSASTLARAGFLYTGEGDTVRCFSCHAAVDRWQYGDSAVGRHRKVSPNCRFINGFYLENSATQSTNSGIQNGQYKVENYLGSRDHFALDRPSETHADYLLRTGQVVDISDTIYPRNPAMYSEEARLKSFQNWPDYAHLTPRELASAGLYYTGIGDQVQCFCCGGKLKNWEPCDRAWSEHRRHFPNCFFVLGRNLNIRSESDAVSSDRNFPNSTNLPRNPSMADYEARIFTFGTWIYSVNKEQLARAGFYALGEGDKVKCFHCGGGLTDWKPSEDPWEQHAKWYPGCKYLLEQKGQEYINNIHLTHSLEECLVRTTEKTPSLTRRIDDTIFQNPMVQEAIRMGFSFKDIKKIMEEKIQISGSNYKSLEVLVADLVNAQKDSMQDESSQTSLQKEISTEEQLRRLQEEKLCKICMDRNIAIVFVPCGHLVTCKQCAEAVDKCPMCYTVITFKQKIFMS
About 15 (0.007%) of roughly 200,000 compounds were called active. Many of the other results were omitted from the sample, so actives are more common in it than they were.
ASSAY_METRIC: displacement

1) O=C(/C=C/c1ccco1)NCC(=O)N/N=C/c1ccccc1[N+](=O)[O-]    -3.9% (inactive)
2) CCOC(=O)N1CCN(c2cc(NCCO)c([N+](=O)[O-])c3nonc23)CC1    -2.9% (inactive)
3) CCOC(=O)C1(CC2CC2)CCN(S(=O)(=O)/C=C/c2ccccc2)CC1    -6.8% (inactive)
4) CC(=O)OCCNc1cc(N2CCN(C)CC2)c2noc3c2c1C(=O)c1ccccc1-3    -1.6% (inactive)
5) O=C(NC1CCCc2ccccc21)c1ccc(S(=O)(=O)N2CCOCC2)cc1 (stereo not drawn)    -3.4% (inactive)
6) O=C(OCCC1Oc2cccnc2NC1=O)c1ccc(F)cc1 (stereo not drawn)    -2.6% (inactive)
7) CCOc1cc(N2CCOCC2)c(OCC)cc1NC(=O)CSc1ncccn1    -8.5% (inactive)
8) Cc1ccc(C)c(NC(=S)N(C)CCO)c1    -3.7% (inactive)
9) Cc1ccccc1N(CC(=O)O)S(C)(=O)=O    -4.6% (inactive)
10) CCOC(=O)Nc1ccc(OC)cc1S(=O)(=O)N1CCCCC1    -2.5% (inactive)
11) CCOC(=O)C1(CC2CC2)CCN(Cc2ccc(O)c(Cl)c2)CC1    -4.8% (inactive)
12) COc1ccc(NC(=O)c2cc(OC)c(OC)cc2OC)c(S(=O)(=O)N2CCOCC2)c1    -3.3% (inactive)
13) O=[N+]([O-])c1ccccc1OCCCN1CCOCC1    -4.4% (inactive)
14) CC(=C/c1ccc(C(C)C)cc1)/C=N/NC(=O)c1ccncc1    -6.3% (inactive)
15) CC(=O)Nc1ccc(NC(=O)C(C)c2cccc(C(=O)c3ccccc3)c2)cc1 (stereo not drawn)    2.4% (inactive)
16) C=CCSc1nnc(-c2ccccc2NC(=O)CC)c(=O)[nH]1    -1.1% (inactive)
17) COc1cccc(-c2cc(C(=O)NCCCn3ccnc3)c3ccccc3n2)c1    -3% (inactive)
18) O=[N+]([O-])c1c(NCCO)cc(N2CCC3(CC2)OCCO3)c2nonc12    -5.3% (inactive)
19) Cc1onc(-c2c(F)cccc2Cl)c1C(=O)N1CCc2ccccc2C1    -8.4% (inactive)
20) CC1(C)NC(C)(C)c2nonc2/C1=N\O    -3.8% (inactive)
21) CCCOC(=O)c1sc2nc3c(cc2c1N)C(=O)CCC3    -6% (inactive)
22) CCCc1nc(NCc2ccc3c(c2)OCO3)c2nnn(Cc3ccccc3Cl)c2n1    51.1% (active)
23) Cc1nc(NCc2ccc3c(c2)OCO3)c2nnn(Cc3ccccc3)c2n1    -8.1% (inactive)
